molecular target: pooled human IgG
MEASUREMENT_KIND: Enzyme Activity Endpoint Assay (purified): Fc
State the result as a value with its unit after it.

{"columns": ["PROTEIN", "OBSERVED_VALUE"],
 "data": [
  ["PRT-76 (protein) MANQEIRYSEVTPYHITSVWTKGVTPPAKFTQGEDVFHAPYVANQGWYDITKTFNGKDDLLCGAATAGNMLHWWFDQNKEEIEAYLKKHPEKQKIMFGDQELLDVRKVINTKDSQTNSALFNYFKDKAFPNLSARRLGVMPDLVLDMFINGYYLNVYKTQTTDVNRTYQTKDRRGGIFDAVFTRGDQSKLLTERHDFKEKTLKEISDLIKQELTEGKALGLSHTYANVRINHVINLWGADFDSNGNLEAIYVTDSDSNASIGMKKYFVGVNSAGKVAISAKEIKEDNIGAQVLGLFTLSTGQDIWNQTN", "78 ng/µL"],
  ["PRT-678 (protein) MQITTVWTKGVTPLTPEQFRYNNEEVIHAPYKAGQGWYDITKVFDGKDNLLCGAATAGNMLHWWFDQNKTEIEAYLSKHPEKQKIIFNNQELFDLKRAIDDKDSQTNSQLFNYFRDKAFPNLSARQLGVMPDLVLDMFINGYYLNVFKTQSTDVNRPYQDPDKRGGIFDDVFGKGDQTTLLTARHDLKNLGLEDISTIIKQELRNGRALALSHTYANVSISHVINLWGADFNAEGNLSAIYVTDSDANNSIGMKKYKVGYNAHGRVAISAKKIEGENIGAQVLGLFTLSSGKDIWQKLSLEHHHHHH", "0 ng/µL"],
  ["PRT-139 (protein) MRNATEAYAKEVPHQITSVWTKGVTPLTPEQFRYNNEDVIHAPYLANQGWYDITKAFDGKDNLLCGAATAGNMLHWWFDQNKTEIEAYLSKHPEKQKIIFNNQELFDLKAAIDTKDSQTNSQLFNYFRDKAFPNLSARQLGVMPDLVLDMFINGYYLNVFKTQSTDVNRPYQDKDKRGGIFDAVFTRGDQTTLLTARHDLKNKGLNDISTIIKQELTEGRALALSHTYANVSISHVINLWGADFNAEGNLEAIYVTDSDANASIGMKKYFVGINAHGHVAISAKKIEGENIGAQVLGLFTLSSGKDIWQKLS", "213 ng/µL"]
]}

Sample PRT-563 (protein) MANQEIRYSEATPSHITSVWTKGVTPPTQFIQNEDVLHAPYIANQGWYDITKTFNGKDDLLCGAATAGNMLHWWFDQNKTQIENYLKKHPEKQKINFNGEQMFDVKEAIDTKDSQTDSALFSYFKDKAFPYLSTKHLGVFPDHVIDMFINGYRLSLTNHGPTPVKRQTKDPRGGIFDAVFTRGDQSKLLTARHDFKEKTLNEISQLIKQELTEGKALGLSHTYANVRINHVINLWGADFNAEGNLEAIYVTDSDSNASIGMKKYYVGVNAAGKVAISAKEIEGDNIGAQVLGLFTLSTGQDIWQQTNLEHHHHHH — what was its Enzyme Activity Endpoint Assay (purified): Fc?
389 ng/µL

All figures here come from patent US20250027068.
